Test system: OVCAR-8 ovarian
Experiment: NCI tumour cell line growth inhibition, 48 h
Quantity measured: TGI

Compound	Target entity	Quantity measured	Assay result
Cn1c(=O)c2nc3c4ccccc4c(=O)n(C)c3nc2n(C)c1=O	OVCAR-8 ovarian	TGI	> 100 µM
NCCOc1ncccc1/C=C1\c2ccccc2-c2ccc(F)cc21	OVCAR-8 ovarian	TGI	2.75 µM
C=C(C)C(=O)Oc1ccc(N=Nc2ccc(C)cc2)ccc1=O	OVCAR-8 ovarian	TGI	10.9 µM
Cc1c(-c2ccccc2)c(C#N)c2nnn(-c3ccc([N+](=O)[O-])cc3)c(=O)n12	OVCAR-8 ovarian	TGI	23.6 µM
CC(=O)c1nc2ccccc2n1CCN1CCN(C)CC1	OVCAR-8 ovarian	TGI	> 100 µM
COc1ccc(OC)c(NC(=O)C2=C(C)NC(C)=C(C(=O)Nc3cc(OC)ccc3OC)C2c2ccco2)c1	OVCAR-8 ovarian	TGI	> 100 µM
CC[C@@]1(O)C[C@H](OC2CC(N(C)C)C(OC3CC(O)C(OC4CC(O)C(O)C(C)O4)C(C)O3)C(C)O2)c2c(cc3c(c2O)C(=O)c2c(O)ccc(O)c2C3=O)[C@H]1C(=O)OC (stereo partly drawn)	OVCAR-8 ovarian	TGI	1.15 µM
C[C@H]1COC(c2ccccn2)=N1	OVCAR-8 ovarian	TGI	> 100 µM
COC(=O)CCCC(=O)NC1=C(Nc2ccc(OC)cc2)C(=O)c2ccccc2C1=O	OVCAR-8 ovarian	TGI	> 100 µM
COc1ccc(=[O+]C)c2nssc1-2	OVCAR-8 ovarian	TGI	> 100 µM
N#CCCOc1cccc(C2(N3CCCCC3)CCCCC2)c1	OVCAR-8 ovarian	TGI	> 100 µM
O=C(O)c1cc2ccccc2c(N=Nc2ccc(S(=O)(=O)O)cc2)c1O	OVCAR-8 ovarian	TGI	> 100 µM
O=C(O/N=C1/CCCC/C1=C\c1ccccc1)c1ccc(Cl)c(Cl)c1	OVCAR-8 ovarian	TGI	32.5 µM
